# Experimental Details: Cytotoxicity against human MT4 cells assessed as reduction in cell viability after 5 days by MTT assay
# Format: cell-based
Readout Type: CC50 at 120 h (µM)
# number only, unit µM dropped from output

>>> endpoint_value("Cc1cccc(CCS(=O)(=O)n2c(=O)[nH]c3ccc(Cl)cc32)c1")
31

Lab note: next compound to report on.
// query Tell me its CC50 at 120 h given O=c1[nH]c2ccc(Cl)cc2n1S(=O)(=O)CCc1ccc(Cl)cc1 as the entry.
// result 91
